- SYSTEM UNDER TEST: chromodomain of CBX5 (human)
- Sequence (Q9UN86 18-75): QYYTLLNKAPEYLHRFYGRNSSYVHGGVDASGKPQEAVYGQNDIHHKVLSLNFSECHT
- METHOD: AlphaScreen or HTRF
* marks the point of attachment. diethyl = not defined here; Bz = O=C(c1ccccc1)*
As shown below, each of these binders has a reported IC50 value.
API: value field is a number in µM; no unit string.

{"columns": ["BINDER", "IC50 [µM]"],
 "data": [
  ["{4‑CF3‑Bz}-FALK(diethyl)S-OMe (reading uncertain) [compound 34]", 33],
  ["{4‑Et‑Bz}-FALK(diethyl)S-OMe (reading uncertain) [compound 31]", 14],
  ["{4‑iPr‑Bz}-FALK(diethyl)S-OMe (reading uncertain) [compound 32]", 38],
  ["{4‑CO2Me‑Bz}-FALK(diethyl)S-OMe (reading uncertain) [compound 33]", 26],
  ["{4‑Me‑Bz}-FALK(diethyl)S-OMe (reading uncertain) [compound 30]", 21]
]}

Okay, next one:
Documented IC50 of Bz-FALK(diethyl)S-OMe (reading uncertain) [compound 27] : 6.9
